RUN_DESCRIPTION: Compound was evaluated for the plasma level at 18 hr in the Swiss webster mouse when administered at the […]
Format: ADME
COND: read-out: Plasma level
VALUE_TYPE: concentration at 18 h (ng/mL)
Number only, in ng/mL; omit the unit.

Tell me the measured concentration at 18 h of "O=C1NC(=O)C(c2ccc(C(F)(F)F)cc2)(c2ccc(C(F)(F)F)cc2)N1" , please.
27000

---

RUN_DESCRIPTION: Compound was evaluated for the toxicity in mouse on 7 th day when administered through intraperitoneal route
Format: organism-based
COND: in vivo, ip
VALUE_TYPE: LD50 at 7 days (mg/kg)
Number only, in mg/kg; omit the unit.

Tell me the measured LD50 at 7 days of "O=C1NC(=O)C(c2ccc(C(F)(F)F)cc2)(c2ccc(C(F)(F)F)cc2)N1" , please.
40
